The values you see were collected from paper PMC5341405.

# measurementNotes: Pharmacokinetics after i.v. administration
# Assay type: in vivo, Wistar rats
# conditionDescription: Wistar, rat, plasma, iv, 2 mg/kg, 2 mg/kg i.v., NCA; read-out: Vdss
readoutType: Vd (L/kg)
Return type: number; implicit unit L/kg.

Answer with reported Vd of `CC(C)=CCC1=C(O)C(=O)c2ccccc2C1=O`
0.19

----------
# measurementNotes: Pharmacokinetics after i.v. administration
# Assay type: in vivo, Wistar rats
# conditionDescription: Wistar, rat, plasma, iv, 2 mg/kg, intravenous administration, rats; read-out: half-life (converted)
Where a name gives a salt, the structure may show the parent alone.
readoutType: half-life (h)
Return type: number; implicit unit h.

Answer with reported half-life of CC(C)=CCC1=C(O)C(=O)c2ccccc2C1=O [LAP sodium salt]
4.1
